Listing of recorded log10(IC50) by entry.
Target: EGFR L858R&T790M (Homo sapiens, UniProt P00533, L858R/T790M)
Construct: host or cells: NCI-H1975
Sequence (P00533 25-1210 T790M/L858R): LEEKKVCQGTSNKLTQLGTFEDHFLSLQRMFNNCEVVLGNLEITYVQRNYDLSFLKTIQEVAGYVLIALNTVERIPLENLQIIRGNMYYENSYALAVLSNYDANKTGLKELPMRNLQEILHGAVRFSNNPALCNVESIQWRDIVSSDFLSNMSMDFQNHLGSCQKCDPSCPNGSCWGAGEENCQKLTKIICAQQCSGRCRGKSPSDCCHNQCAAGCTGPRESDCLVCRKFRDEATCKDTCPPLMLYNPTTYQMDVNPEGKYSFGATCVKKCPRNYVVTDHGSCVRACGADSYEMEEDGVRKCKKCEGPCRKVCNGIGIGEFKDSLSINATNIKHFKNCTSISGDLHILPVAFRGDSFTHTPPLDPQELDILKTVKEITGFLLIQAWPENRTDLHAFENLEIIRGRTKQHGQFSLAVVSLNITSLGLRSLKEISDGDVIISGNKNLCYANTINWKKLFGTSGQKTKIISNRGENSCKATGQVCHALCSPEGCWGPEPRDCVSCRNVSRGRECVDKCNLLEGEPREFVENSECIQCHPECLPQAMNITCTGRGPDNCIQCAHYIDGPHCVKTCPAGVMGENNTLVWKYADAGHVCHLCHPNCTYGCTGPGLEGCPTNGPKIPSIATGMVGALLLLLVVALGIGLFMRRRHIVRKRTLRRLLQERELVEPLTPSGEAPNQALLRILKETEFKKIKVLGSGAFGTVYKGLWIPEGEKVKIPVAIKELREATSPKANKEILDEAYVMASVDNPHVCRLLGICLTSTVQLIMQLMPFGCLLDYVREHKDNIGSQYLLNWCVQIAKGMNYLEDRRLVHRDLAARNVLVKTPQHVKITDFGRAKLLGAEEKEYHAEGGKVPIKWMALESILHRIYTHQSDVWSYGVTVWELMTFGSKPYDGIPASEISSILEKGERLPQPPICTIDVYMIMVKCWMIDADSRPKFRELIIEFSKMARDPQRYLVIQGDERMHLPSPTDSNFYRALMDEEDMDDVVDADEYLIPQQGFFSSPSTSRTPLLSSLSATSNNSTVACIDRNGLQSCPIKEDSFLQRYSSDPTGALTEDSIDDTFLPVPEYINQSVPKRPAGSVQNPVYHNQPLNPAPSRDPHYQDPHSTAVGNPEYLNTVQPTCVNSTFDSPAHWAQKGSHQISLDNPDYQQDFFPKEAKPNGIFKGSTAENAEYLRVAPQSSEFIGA
Experiment: EGFR L858R and T790M cellular phosphorylation inhibition in NCI-H1975 (MSD);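 also: phosphorylated and total EGFR detected by electrochemiluminescence, cells exposed to compound in medium containing 1% FBS at 37 °C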
Type: cell-based
Conditions: NCI-H1975 cells, 4 h compound, p-EGFR(Y1068)/total EGFR; read-out: EGFR L858R and T790M mutation IC50
measured endpoint: log10(IC50) (log10 of the value in pM)

{"molecular string": "C=CC(=O)Nc1cc(Nc2ncnc(Nc3cc(F)c(F)cc3C(C)(C)O)n2)c(OC)cc1N1CCC[C@@H]1CN(C)C", "log10(IC50)": 2.30}
{"molecular string": "C=CC(=O)Nc1cc(Nc2nccc(Nc3cc(Cl)c(F)cc3C(C)(C)O)n2)c(OC)cc1N1CC[C@@H](CN(C)C)C1", "log10(IC50)": 2.78}
{"molecular string": "C=CC(=O)Nc1cc(Nc2ncc(C#N)c(Nc3cc(Cl)c(F)cc3C(C)(C)O)n2)c(OC)cc1N1CC[C@@H](N(C)C)C1", "log10(IC50)": 2.70}
{"molecular string": "C=CC(=O)Nc1cc(Nc2ncnc(Nc3cc(Cl)c(F)cc3C(C)(C)O)n2)c(OC)cc1N1CC[C@@H](N(C)C)C1", "log10(IC50)": 2.78}
{"molecular string": "C=CC(=O)Nc1cc(Nc2ncnc(Nc3ccccc3C(C)(C)O)n2)c(OC)cc1N1CCC[C@@H](N(C)C)C1", "log10(IC50)": 3.72}
{"molecular string": "C=CC(=O)Nc1cc(Nc2ncnc(Nc3cc4cc[nH]c4cc3C(C)(C)O)n2)c(OC)cc1N(C)CCN(C)C", "log10(IC50)": 2.48}
{"molecular string": "C=CC(=O)Nc1cc(Nc2ncnc(Nc3cc(Cl)c(F)cc3C(C)(C)O)n2)c(OC)cc1N1CC[C@@H]1CN(C)C", "log10(IC50)": 2.95}
